molecular target: T1, HPV 16 E7 peptide on HLA-A*02:01 (human); assay: multimer staining
T1 peptide: YMLDLQPET
Quantity Kind: binding result

| Binder | Assay Result |
| --- | --- |
| TCR 62 (TCR, V domains shown) Valpha: AQTVTQSQPEMSVQEAETVTLSCTYDTSENNYYLFWYKQPPSRQMILVIRQEAYKQQNATENRFSVNFQKAAKSFSLKISDSQLGDTAMYFCALYTYKYIFGTGTRLKVLA Vbeta: EAGVAQSPRYKIIEKRQSVAFWCNPISGHATLYWYQQILGQGPKLLIQFQNNGVVDDSQLPKDRFSAERLKGVDSTLKIQPAKLEDSAVYLCASSLDTRGSSYNEQFFGPGTRLTVL | recognises |
| TCR 60 (TCR, V domains shown) Valpha: QKEVEQNSGPLSVPEGAIASLNCTYSDRGSQSFFWYRQYSGKSPELIMFIYSNGDKEDGRFTAQLNKASQYVSLLIRDSQPSDSATYLCAVNMLGSGGSNYKLTFGKGTLLTVNP Vbeta: EPEVTQTPSHQVTQMGQEVILRCVPISNHLYFYWYRQILGQKVEFLVSFYNNEISEKSEIFDDQFSVERPDGSNFTLKIRSTKLEDSAMYFCAISRTVSYEQYFGPGTRLTVT | recognises |
